# Tested on: B16F10-Cas9 cells pulsed with SIINFEKL peptide, co-cultured with OT-I T cells
# Protocol description: Genome-scale CRISPR-Cas9 screen, selection with OT-I T cells
# Assay type: cell-based, mouse
# Condition notes: Table 3; B16F10-Cas9 cells pulsed with SIINFEKL, co-cultured with OT-I T cells 1:1 for one day; negative = depleted, positive = enriched
Property measured: OT1 (sgRNA Log(2) fold change, OT-I selection versus control T cells)
Format: numeric value only, no unit, no commentary.

residue_sequence="CTTGTGACGGTAATTCTGAA (chemistry not fully specified)" number=-2.48

Query: Need OT1 (sgRNA Log(2) fold change, OT-I selection versus control T cells) of CCCGGACTGGATCAACACCG (chemistry not fully specified) , thanks.
Result: -3.76

Query: Same for AAGGGCCACTTACAATTAGG (chemistry not fully specified)
Result: -0.44

Query: Same for ACAGCCTCCCAATATCTCAG (chemistry not fully specified)
Result: -3.56

Query: Same for GGTATTCCCAGCATACGACA (chemistry not fully specified)
Result: 3.32
